# STUDY TARGET: T1, Pumilio RNA-binding domain (UniProt P25822 1091-1426)
# T1 sequence: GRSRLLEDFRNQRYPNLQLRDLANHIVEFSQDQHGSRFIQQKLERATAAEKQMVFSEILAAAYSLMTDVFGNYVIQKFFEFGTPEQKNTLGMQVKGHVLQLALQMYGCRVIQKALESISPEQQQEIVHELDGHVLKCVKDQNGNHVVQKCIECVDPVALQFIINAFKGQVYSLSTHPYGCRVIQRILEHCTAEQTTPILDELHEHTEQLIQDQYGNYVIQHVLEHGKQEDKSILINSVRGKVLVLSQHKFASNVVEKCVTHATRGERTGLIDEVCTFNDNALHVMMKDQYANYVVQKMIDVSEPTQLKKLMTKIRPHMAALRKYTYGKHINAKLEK
# PROCEDURE SUMMARY: EMSA; 50 mM Tris pH 7.5, 150 mM NaCl, 2 mM DTT, 0.1 mg/ul BSA (so in the source), 0.001% Igepal CA-630, dIdC and yeast tRNA; 20 min at RT; 6% native PAGE at 4 C
# CONDITION SUMMARY: protein: recombinant; tags: HaloTag (pFN18K) removed by AcTEV cleavage; label: 5'-32P
OBSERVATION TYPE: binding result

UUUGUAAAUU (ssRNA) [pgc 3'UTR PRE/BRE] = binds
UAGACUAUUUGUAAUUUAUAUC (ssRNA) [CycB 3'UTR NRE] = binds
UUUCUCAAUU (ssRNA) [pgc 3'UTR PRE mutant UCUC] = no binding
UUUUUUAAUU (ssRNA) [pgc 3'UTR PRE mutant UUUU] = no binding

Reference source: paper PMC6328254
